The origin of these recorded values is PubChem BioAssay.

# Lookup of reported composite z-score keyed by entry
Assay: small-molecule microarray binders of probe aCHRDL2, primary screen, biochemical, biotinylated probe, 635/667 nm fluorescence (AID 1100)
Conditions: higher = more signal
Respond numerically, and do not add a unit to the figure.

Reference set, count: 5
CCOC(=O)[C@H](Cc1ccccc1)NC(=O)CCC1CC(OC(=O)NCc2ccc3c(c2)OCO3)CC2(CCCC(COC(=O)NCCOC)O2)O1 (some centres not stated) ... -0.49
COC(=O)CC=C[C@@H](C)[C@@H](C=NOC[C@@H](O)COCc1ccco1)OC ... -1.34
CC(C)CON=C1C[C@@H](O)[C@@H](O)[C@@H]2[C@@H]3C(=O)N([C@@H](C)c4ccccc4)C(=O)[C@@H]3CC[C@@H]12 ... 0.767
CCOC(=O)[C@H](Cc1ccccc1)NC(=O)CCC1CC(OC(=O)NCCc2ccc(F)cc2)CC2(CCCC(COC(=O)NCCC(C)C)O2)O1 (some centres not stated) ... -0.415
CO[C@@H]1[C@H](O)CO[C@H]1C=Cc1ccccc1 ... -0.41

For the compound COC(=O)[C@H](CCSC)NC(=O)CC=C[C@@H](C)CO , report composite z-score.
-1.47

* * *

Test: basal 3T3-L1 adipocyte mitochondrial potential changes, profiling panel, cell-based, JC-1 fluorescence, 3T3-L1 adipocytes, 24 h, 100 nL compound (AID 1168); further: test concentration not given here
Conditions: JC-1 mitochondrial fluorescence, higher = more signal, called active from +8 up or from −8 down
Property label: z-score
I'd appreciate a reply containing only the number, no unit.

// solved cases for z-score follow
CC(C)CON=C1C[C@@H](O)[C@@H](O)[C@@H]2[C@@H]3C(=O)N(Cc4ccccc4)C(=O)[C@@H]3CC[C@H]12 ... -1.26
CC(CCN1CCCc2nc(C)c(C)cc21)=NOC[C@@H](O)COCc1ccco1 ... -0.126
CCOC(=O)NN=C1C[C@@H](O)[C@@H](O)[C@@H]2[C@@H]3C(=O)N(CC)C(=O)[C@@H]3CC[C@H]12 ... -0.557
O=C1[C@H]2[C@H]3[C@H](O)[C@H](O)CC(=NOC[C@@H](O)COCc4ccco4)[C@@H]3CC[C@H]2C(=O)N1Cc1ccc2c(c1)OCO2 ... 0.231

Tell me z-score reported for CCOC(=O)CCN1C(=O)[C@H]2[C@H]3[C@H](O)[C@H](O)CC(=NO[C@@H]4O[C@H](CO)[C@@H](O)[C@H](O)[C@H]4O)[C@@H]3CC[C@H]2C1=O
-0.0421

Please supply the value of reported z-score for the item CCOC(=O)[C@H](Cc1ccccc1)NC(=O)CCC1CC(OC(=O)NCc2cccc3ccccc23)CC2(CCCC(COC(=O)NCCc3ccccc3OC)O2)O1 (stereo partly specified)
-0.177

Complete the entry with z-score for CON=C(C)CCC(=O)OC[C@H]1O[C@H](C#Cc2ccccc2)C=C[C@@H]1Oc1ccc(C)cc1
-0.73

Name the recorded z-score of the item CC(=O)OC[C@H]1O[C@@H](ON=C(C)CCN2CCCCc3nc(C)c(C)cc32)[C@H](OC(C)=O)[C@@H](OC(C)=O)[C@@H]1OC(C)=O in your answer.
0.327

Supply recorded z-score for O=C1[C@H]2[C@H]3[C@H](O)[C@H](O)CC(=NO[C@@H]4O[C@H](CO)[C@@H](O)[C@H](O)[C@H]4O)[C@@H]3CC[C@H]2C(=O)N1C1CCCCC1 here.
-0.229

Supply reported z-score belonging to this molecule: CCOC(=O)[C@H](Cc1ccccc1)NC(=O)CCC1CC(OC(=O)NCCc2ccc(F)cc2)CC2(CCCC(COC(=O)NCc3cccc(C(F)(F)F)c3)O2)O1 (stereo partly specified)
-0.306

Complete the entry with z-score for CO[C@@H](C(C)C)[C@@H](C)C1OC(=O)CC1O (stereo partly specified)
-0.419

* * *

System: Neuregulin-1 EGF-like domain
Assay: binders of neuregulin-1 EGF-like domain, primary screen, biochemical, small-molecule microarray, 635 nm fluorescence (AID 1081);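 further: binding of the protein to compounds printed on small-molecule microarray slides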
Settings: small-molecule microarray binding, higher = more signal
// values below are reported composite z-score
Keep the answer to the number alone.

Study these solved cases before continuing.
COC(=O)[C@H](C)NC(=O)CCC1CC(OC(=O)NCCc2ccc(F)cc2)CC2(CCCC(COC(=O)NCc3ccccc3)O2)O1 (some centres undefined) ... 0.964
C[C@@H]1CC[C@H]2C(=O)O[C@@H](COc3ccc(C(C)(C)C)cc3)CN2[C@H]1c1ccc(Br)cc1 ... -0.4
CCN1C(=O)[C@H]2[C@H]3[C@H](O)[C@H](O)CC(=NOCC[C@@H]4C=C[C@H](OC(C)=O)[C@@H](COC(C)=O)O4)[C@@H]3CC[C@H]2C1=O ... 0.314

Tell me composite z-score reported for O=C1C[C@H](c2ccccc2)[C@H](c2ccc(Br)cc2)O1
-0.293

Give composite z-score for the following molecule: CC#CCOCCC=C1c2ccccc2[C@@H](OC)[C@@H]1C
0.244

* * *

Assay: modulators of HCV replicon luciferase signal, primary screen, HCV replication inhibitor project, Huh7 cells, luciferase reporter (AID 1109);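 further: huh7 hepatoma cells harbouring a luciferase neomycin HCV replicon reporter; luciferase luminescence as measure of HCV replicon replication; test concentration not given here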
Details: 48 h, higher = more signal
Each entry falls in a class defined on z-score; the bands are class 0: < -0.5; class 1: ≥ -0.5 and < 0.03; class 2: ≥ 0.03

Worked set:
CCN1C(=O)[C@H]2[C@H]3[C@H](O)[C@H](O)CC(=NOC[C@@H](O)COCc4ccco4)[C@H]3CC[C@H]2C1=O ... class 1
CO[C@@H]1C=CCC(=O)N[C@@H](C)C(=O)OC[C@@H](NS(=O)(=O)c2ccc(C)cc2)[C@H](C)C=CCC(=O)OC[C@H]1C ... class 2
CCN1C(=O)[C@H]2[C@@H]3C(=CC[C@H]2C1=O)C(=O)[C@H]1O[C@H]1[C@H]3O ... class 0

Kindly state the category for this compound: CCCC[C@H]1CN2[C@@H](CC[C@@H](C)[C@@H]2c2ccc(Br)cc2)C(=O)O1
class 0

Class (by measured z-score) for O=C1C[C@@H](O)[C@@H](O)[C@@H]2[C@@H]3C(=O)N(C4CCCCC4)C(=O)[C@@H]3CC[C@@H]12
class 1

Band assignment needed for CO[C@H]1COC(=O)CC=C[C@@H](C)COC(=O)[C@H]2CCCN2C(=O)CC=C[C@H]1C please.
class 1

In plain terms, what class is COC(=O)[C@H](C)NC(=O)CCC1CC(OC(=O)NCc2cccc3ccccc23)CC2(CCCC(COC(=O)NCc3ccccc3)O2)O1 (some centres not stated) ?
class 0

Please report the category associated with COC(=O)[C@@H]1CC[C@H](C)[C@@H](c2ccc(Br)cc2)N1C(=O)C(F)(F)F , nothing else.
class 1

State the band of COc1cccc([C@H]2Oc3ccc(OC)cc3C(=NOCC[C@@H]3C=C[C@H](OC(C)=O)[C@@H](COC(C)=O)O3)[C@@H]2O)c1
class 0

Please indicate the class for CC(C)CON=C1[C@H]2CCn3c(=O)n(C)c(=O)n3[C@H]2[C@H](O)[C@@H]2O[C@H]12 based on its z-score.
class 2

Hey, which category is CCOC(=O)[C@H](CC(C)C)NC(=O)CCC1CC(OC(=O)NCc2ccc3c(c2)OCO3)CC2(CCCC(COC(=O)NCCC(C)C)O2)O1 (some centres not stated) in, do you know?
class 2

* * *

Tested on: glycogen synthase kinase-3 (GSK3A per assay name; protocol says GSK3B)
Assay: GSK3 binders on small-molecule microarrays, primary screen, biochemical, small-molecule microarray, 635 nm fluorescence, GSK3A (AID 1103); further: the record names both GSK3A and GSK3B
Settings: small-molecule microarray binding, fluorescence 635 nm; higher = more signal
Examples of compounds with documented composite z-score follow.

Known composite z-score results, listed for orientation:
CCOC(=O)[C@H](Cc1ccccc1)NC(=O)CCC1CC(OC(=O)NCc2ccc3c(c2)OCO3)CC2(CCCC(COC(=O)NCCOc3ccccc3)O2)O1 (stereo partly drawn) ... 1.1
CC(CCN1CCCc2nc(C)c(C)cc21)=NO[C@H](C)c1cn([C@@H]2COC[C@H]2O)nn1 ... 1.11
COC(=O)[C@@H]1CC[C@H](C)[C@@H](c2ccc(Br)cc2)N1C(=O)C(F)(F)F ... -0.657
CC(=O)OC[C@H]1O[C@@H](ON=C(C)CCC(=O)OC[C@H]2O[C@H](C#Cc3ccccc3)C=C[C@@H]2Oc2ccc(C)cc2)[C@H](OC(C)=O)[C@@H](OC(C)=O)[C@@H]1OC(C)=O ... 1.11
CCOC(=O)NN=C1C[C@@H](O)[C@@H](O)[C@@H]2[C@@H]3C(=O)N(CC)C(=O)[C@@H]3CC[C@H]12 ... -0.256

Read off the recorded composite z-score for CO[C@@H]1COC(=O)CC=C[C@H](C)[C@H](OC)COC(=O)[C@@H]2CCCN2C(=O)CC=C[C@H]1C
0.562

Consider the compound CC1(C)O[C@H]2O[C@H]([C@H](O)CON=C3[C@H]4CCn5c(=O)n(-c6ccccc6)c(=O)n5[C@H]4[C@H](O)[C@@H]4O[C@H]34)[C@H](O)[C@H]2O1 and give its recorded composite z-score.
0.085

Give the measured composite z-score for CC(C)C(=O)N[C@H]1CCCN1C(=O)C=Cc1ccccc1
0.823
